Molecular target: human adenosine A1 receptor (Homo sapiens)
Construct: expressed in transfected cells; host or cells: CHO cells, Semliki Forest virus expression system; membrane preparation
Sequence (P30542 whole entry): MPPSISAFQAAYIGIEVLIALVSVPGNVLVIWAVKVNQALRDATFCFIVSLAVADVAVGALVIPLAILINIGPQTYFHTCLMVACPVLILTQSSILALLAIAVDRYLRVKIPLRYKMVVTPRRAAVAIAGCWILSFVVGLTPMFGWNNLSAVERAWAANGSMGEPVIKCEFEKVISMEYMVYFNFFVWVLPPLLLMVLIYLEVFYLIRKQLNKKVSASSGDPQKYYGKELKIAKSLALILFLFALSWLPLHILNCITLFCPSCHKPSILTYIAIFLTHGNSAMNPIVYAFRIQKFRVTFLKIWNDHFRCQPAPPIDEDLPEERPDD
Assay: [3H]-DPCPX binding assay, human adenosine A1 receptor (SPA, CHO cell membranes)
Conditions: recombinant human A1 in CHO membranes; [3H]-DPCPX 0.6 nM; Ki by Cheng-Prussoff; read-out: hA1 (pKi) (converted)
ENDPOINT LABEL: Ki (µM)
Answer in µM, number only, no unit symbol.

Sample answers from the record:
COc1ccc(N2CCOCC2)c2sc(C(=O)NCCc3ccsc3)nc12    1.26
COc1ccc(N2CCOCC2)c2sc(C(=O)NCc3ccccn3)nc12    6.31

Note down Ki recorded for "COc1ccc(N2CCOCC2)c2sc(C(=O)NCCc3ccccc3Cl)nc12"
1

---

melting point overview

Sample answers from the record:
COc1cccc(CCNC(=O)c2nc3c(OC)ccc(N4CCOCC4)c3s2)c1 [Example 64]    99 to 101 °C
COc1ccc(CCNC(=O)c2nc3c(OC)ccc(N4CCOCC4)c3s2)cc1 [Example 68]    69 to 71 °C
COc1ccc(N2CCOCC2)c2sc(C(=O)NCCc3ccncc3)nc12 [Example 48]    185 to 188 °C
COc1ccc(N2CCOCC2)c2sc(C(=O)NCCc3cccnc3)nc12 [Example 55]    160 to 163 °C
COc1ccc(N2CCOCC2)c2sc(C(=O)NCc3ccccc3F)nc12 [Example 21]    133 to 134 °C
COc1ccc(N2CCOCC2)c2sc(C(=O)NC(c3ccccc3)c3ccccn3)nc12 (stereo not shown) [Example 67]    219 to 221 °C
COc1ccc(N2CCOCC2)c2sc(C(=O)NNC(=O)c3ccncc3)nc12 [Example 45]    171 to 174 °C
COc1ccc(N2CCOCC2)c2sc(C(=O)NCCc3ccsc3)nc12 [Example 54]    137 to 139 °C
COc1ccc(N2CCOCC2)c2sc(C(=O)NC(C)Cc3cccs3)nc12 (stereo not shown) [Example 81]    127 to 129 °C
COc1ccc(N2CCOCC2)c2sc(C(=O)NCC(=O)c3ccsc3)nc12 [Example 79]    229 to 232 °C

Note down melting point recorded for COc1ccc(N2CCOCC2)c2sc(C(=O)Nc3ccc(F)cc3)nc12 [Example 2]
206 to 208 °C

Note down melting point recorded for COc1ccc(N2CCOCC2)c2sc(C(=O)Nc3ccccn3)nc12 [Example 19]
177 to 181 °C

Note down melting point recorded for COc1ccc(N2CCOCC2)c2sc(C(=O)NCC(=O)c3ccc4c(c3)OCCO4)nc12 [Example 75]
206 to 208 °C

---

melting point overview

Sample answers from the record:
COc1ccc(N2CCOCC2)c2sc(C(=O)N[C@H]3CCCC[C@@H]3O)nc12 (stereo in doubt)    110 to 115 °C
COc1ccc(N2CCOCC2)c2sc(C(=O)NC(C)c3csc(C)n3)nc12 (stereo not drawn)    174 to 175 °C
COc1ccc(N2CCOCC2)c2sc(C(=O)NNc3ccccc3)nc12    226 to 227 °C
COc1ccc(N2CCOCC2)c2sc(C(=O)NNC(=O)c3ccccc3)nc12    > 260 °C
COc1ccc(N2CCOCC2)c2sc(C(=O)NCc3cccc(Cl)c3)nc12    148 to 150 °C
COc1ccc(NC(=O)c2nc3c(OC)ccc(N4CCOCC4)c3s2)cc1    148 °C
COc1ccc(C(=O)CNC(=O)c2nc3c(OC)ccc(N4CCOCC4)c3s2)cc1    176 to 178 °C
COc1ccccc1NC(=O)c1nc2c(OC)ccc(N3CCOCC3)c2s1    191 °C

Note down melting point recorded for COc1ccc(N2CCOCC2)c2sc(C(=O)NCC3CCCO3)nc12 (stereo not drawn)
171 to 172 °C

Reference source for all entries: patent US6596718B1
